Assay remarks: p53 small molecule agonists, cell-based qHTS assay (AID 1963582)
Condition info: HCT-116 p53RE-bla reporter, beta-lactamase FRET ratio, 16 h; series mostly up to 66 µM
Results filed as inconclusive are left out. The source made the active and inactive calls. The call rests on the fitted dose curve; in most records, active means well fitted activation curve with a large enough effect in the signal ratio in the repeat runs (not every such curve was filed as active); inconclusive means weak or mixed curves; inactive means flat fitted curve, though single readings scatter; the % refers to the signal ratio.
Possible outcomes: active, inactive

- ClC1=C(Cl)[C@]2(Cl)[C@H]3[C@H]([C@H]4C=C[C@H]3C4)[C@@]1(Cl)C2(Cl)Cl: inactive
- O=C(O)C(F)(F)C(F)(F)C(F)(F)C(F)(F)C(F)(F)F: inactive
- CC(Cc1ccccc1)NCCn1cnc2c1c(=O)n(C)c(=O)n2C (centres undefined): inactive
- COC(=O)C(C)N(C(=O)c1ccco1)c1c(C)cccc1C (centres undefined): inactive
- O=c1oc2ccccc2c(O)c1Cc1c(O)c2ccccc2oc1=O: active
- O=[N+]([O-])C(Br)Br: inactive
- CCCN1CCC[C@@H]2Cc3[nH]ncc3C[C@H]21: inactive
- ClP(Cl)(Cl)(Cl)Cl: inactive
- Cc1cc(Cl)ccc1O[C@H](C)C(=O)O: inactive
- N#Cc1c[nH]cc1-c1cccc2c1OC(F)(F)O2: active
- Oc1ccc(I)cc1: inactive
- CSCCCN=C=S: inactive
- NP(N)(=O)NC(=O)c1ccc(F)cc1: inactive
- COc1ccc(CN2CCNCC2)c(OC)c1OC: inactive
- CC(O)(CS(=O)(=O)c1ccc(F)cc1)C(=O)Nc1ccc(C#N)c(C(F)(F)F)c1 (centres undefined): inactive
- C[C@]12Cc3nonc3C[C@@H]1CC[C@@H]1[C@@H]2CC[C@@]2(C)[C@H]1CC[C@]2(C)O: inactive
- ClCCCN1CCN(c2cccc(Cl)c2)CC1: inactive
- N#Cc1ccc(N(CC(N)=O)CC(F)(F)F)cc1C(F)(F)F: inactive
- CCOP(=S)(OCC)Oc1ncn(-c2ccccc2)n1: inactive
- Cc1c([N+](=O)[O-])cc2c(c1[N+](=O)[O-])C(C)(C)CC2(C)C: inactive
- CC1(c2ccc(Oc3ccccc3)cc2)OC(=O)N(Nc2ccccc2)C1=O (centres undefined): inactive
- [Cl][Sb]([Cl])[Cl]: inactive
- CC(C)(C)NCC(O)c1ccccc1Cl (centres undefined): inactive
- Brc1ccccc1: inactive
- Cn1sc(Cl)cc1=O: inactive
- O=c1c(C2CC(c3ccc(-c4ccc(Br)cc4)cc3)Cc3ccccc32)c(O)sc2ccccc12 (centres undefined): inactive
- CS(=O)(=O)c1ccc(C(=O)C2C(=O)CCCC2=O)c(Cl)c1COCC(F)(F)F: inactive
- Clc1ccc2ccccc2c1: inactive
- O=NN1CCN(N=O)CC1: inactive
- CN1COCN(Cc2cnc(Cl)s2)/C1=N\[N+](=O)[O-]: inactive
- CCN[C@@H](C)Cc1ccccc1: inactive
- O=C(N[C@H]1CN2CCC1CC2)c1cc2ccoc2cn1: inactive
- OC(c1ccc(F)cc1)(c1cncnc1)c1ccccc1Cl (centres undefined): inactive
- OC(c1ccc(Cl)cc1)(c1ccc(Cl)cc1)C(Cl)(Cl)Cl: inactive
- CNNC: inactive
- C(COCC1CO1)OCC1CO1 (centres undefined): inactive
- Nc1ccc([N+](=O)[O-])cc1Cl: inactive
- CCC[CH2][Sn]([CH2]CCC)([O]C(C)=O)[O]C(C)=O: inactive
- O=C(NC(=O)c1c(F)cccc1F)Nc1cc(Cl)c(Oc2ncc(C(F)(F)F)cc2Cl)c(Cl)c1: active
- CC(C)(COCC1CO1)COCC1CO1 (centres undefined): inactive
- COC(=O)COc1ccc(Cl)cc1Cl: inactive
- CC(C)Oc1cccc(NC(=O)c2ccccc2C(F)(F)F)c1: inactive
- FC(F)OC(F)(F)C(F)Cl (centres undefined): inactive
- CN[C@@H](C)[C@H](O)c1ccccc1: inactive
- NC(=O)CI: inactive
- OCC(c1ccc(Cl)cc1)c1ccc(Cl)cc1: inactive
- CCCCN(N=O)C(=N)N[N+](=O)[O-]: active
- CC(Cl)(Cl)[N+](=O)[O-]: inactive
- NCCCNCCCN: inactive
- C[N+](C)(C)CC1CO1 (centres undefined): inactive
- Cc1nnc2n1-c1sc(CCC(=O)N3CCOCC3)cc1C(c1ccccc1Cl)=NC2: inactive
- O=C(N/N=C/c1ccc([N+](=O)[O-])o1)c1cc([N+](=O)[O-])cc([N+](=O)[O-])c1O: inactive
- Oc1cccc(-c2ccccc2)c1: inactive
- Oc1cc(Cl)cc(Cl)c1: inactive

* * *

Assay remarks: p53 small molecule agonists, cell-based qHTS assay: qHTS cell viability counter screen (AID 1963581); further: nearly all actives have a fitted effect of over 45% in size
Condition info: p53RE-bla HCT-116 viability, ATP luminescence, 16 h; series mostly up to 66 µM
Inconclusive results are not listed. The source made the active and inactive calls. The call rests on the fitted dose curve.
Possible outcomes: active, inactive

- CC(Cc1ccccc1)NCCn1cnc2c1c(=O)n(C)c(=O)n2C (centres undefined): inactive
- O=C(CBr)c1ccccc1: inactive
- COP(=O)(OC)OC(Br)C(Cl)(Cl)Br (centres undefined): inactive
- Cc1c([N+](=O)[O-])c(C)c([N+](=O)[O-])c(C(C)(C)C)c1[N+](=O)[O-]: inactive
- CC(C)[C@@H](Nc1ccc(C(F)(F)F)cc1Cl)C(=O)OC(C#N)c1cccc(Oc2ccccc2)c1 (some centres undefined): inactive
- CCC1(CC)C(=O)N=C(O)NC1=O: inactive
- CC(C1CC1)C(O)(Cn1cncn1)c1ccc(Cl)cc1 (centres undefined): inactive
- Brc1cccc(-c2ccccc2)c1: inactive
- CC(C)=CCOc1c2occc2cc2ccc(=O)oc12: inactive
- O=[N+]([O-])C(Br)Br: inactive
- COP(=S)(OC)Oc1cc(Cl)c(Br)cc1Cl: inactive
- COc1cccc2c1cc([N+](=O)[O-])c1c(C(=O)O)cc3c(c12)OCO3: inactive
- C=CC(C)(CCC=C(C)C)OC(=O)c1ccccc1N (centres undefined): inactive
- CC(C)[C@H](C(=O)OC(C#N)c1cccc(Oc2ccccc2)c1)c1ccc(OC(F)F)cc1 (some centres undefined): inactive
- CC1(C(=O)Nc2ccc(O)c(Cl)c2Cl)CCCCC1: inactive
- CCNC(=O)NC(=O)/C(C#N)=N/OC: inactive
- O=[N+]([O-])[O-].[Tl+]: inactive
- Cc1c(F)c(F)c(COC(=O)C2C(/C=C(\Cl)C(F)(F)F)C2(C)C)c(F)c1F (centres undefined): inactive
- CCCCC(CC)COC(=O)OOC(C)(C)C (centres undefined): inactive
- BrC(Br)C(Br)(Br)Br: inactive
- CNC(=O)Oc1cc(C)cc(C(C)C)c1: inactive
- CCOP(=O)(OCC)Oc1nc(Cl)c(Cl)cc1Cl: inactive
- c1ccc(OCC2CO2)cc1 (centres undefined): inactive
- COc1cnc(OC)n2nc(NS(=O)(=O)c3c(OCC(F)F)cccc3C(F)(F)F)nc12: inactive
- ClCc1ccccc1Cl: inactive
- CC1=C2C[C@H]3[C@@H](CC=C4C[C@@H](O)CC[C@@]43C)[C@@H]2CC[C@]12O[C@@H]1C[C@H](C)CN[C@H]1[C@H]2C: inactive
- COc1cccc(C(=O)NN(C(=O)c2cc(C)cc(C)c2)C(C)(C)C)c1C: inactive
- O=C(O)c1cc[c]([Hg][Cl])cc1: inactive
- C=CCC1([C@H](C)CCC)C(=O)NC(=O)NC1=O: inactive
- O=[N+]([O-])c1cc(C(F)(F)F)c(Cl)c([N+](=O)[O-])c1Cl: active
- CCOP(=S)(OCC)Oc1ccc(Cl)cc1Cl: inactive
- C#CCN1C(=O)COc2cc(F)c(N3C(=O)C4=C(CCCC4)C3=O)cc21: inactive
- O=C(NC(=O)c1c(F)cccc1F)Nc1cc(Cl)c(OC(F)(F)C(F)F)c(Cl)c1: inactive
- CCOC(=O)COc1cc(-c2nn(C)c(OC(F)F)c2Cl)c(F)cc1Cl: inactive
- CCC1(c2ccccc2)C(=O)NC(=O)NC1=O: inactive
- CNC(=O)O/N=C(\C)C(C)S(C)(=O)=O (centres undefined): inactive
- ClCC(Cl)Cl: inactive
- CCCCCCCCCCCCCCC(Br)C(=O)O (centres undefined): inactive
- CCCCN(N=O)C(=N)N[N+](=O)[O-]: inactive
- N#CCCC(Br)(C#N)CBr (centres undefined): inactive
- CCOP(=O)(Sc1ccccc1)Sc1ccccc1: inactive
- O=c1c(C2CC(c3ccc(-c4ccc(Br)cc4)cc3)Cc3ccccc32)c(O)sc2ccccc12 (centres undefined): active
- C#C[C@]1(O)C=C[C@H]2[C@@H]3CCC4=CC(=O)CC[C@@H]4[C@H]3CC[C@@]21CC: inactive
- COC12CC[C@@]3(C[C@@H]1C(C)(O)C(C)(C)C)[C@H]1Cc4ccc(O)c5c4[C@@]3(CCN1CC1CC1)[C@H]2O5 (some centres undefined): inactive
- CCCCCCCCCCCCCC[P+](CCCCCC)(CCCCCC)CCCCCC (tested in a mixture with another compound): active
- O=[N+]([O-])c1cc(Cl)c(Cl)cc1Cl: inactive
- CCOC(=O)OC1=C(c2cc(C)ccc2C)C(=O)NC12CCC(OC)CC2 (centres undefined): inactive
- NCCc1cc(O)c(O)cc1O: inactive
- Oc1ccccc1Br: inactive
